TARGET SYSTEM: PRKD3 (human) (UniProt O94806)
Sequence (O94806 whole entry, looked up): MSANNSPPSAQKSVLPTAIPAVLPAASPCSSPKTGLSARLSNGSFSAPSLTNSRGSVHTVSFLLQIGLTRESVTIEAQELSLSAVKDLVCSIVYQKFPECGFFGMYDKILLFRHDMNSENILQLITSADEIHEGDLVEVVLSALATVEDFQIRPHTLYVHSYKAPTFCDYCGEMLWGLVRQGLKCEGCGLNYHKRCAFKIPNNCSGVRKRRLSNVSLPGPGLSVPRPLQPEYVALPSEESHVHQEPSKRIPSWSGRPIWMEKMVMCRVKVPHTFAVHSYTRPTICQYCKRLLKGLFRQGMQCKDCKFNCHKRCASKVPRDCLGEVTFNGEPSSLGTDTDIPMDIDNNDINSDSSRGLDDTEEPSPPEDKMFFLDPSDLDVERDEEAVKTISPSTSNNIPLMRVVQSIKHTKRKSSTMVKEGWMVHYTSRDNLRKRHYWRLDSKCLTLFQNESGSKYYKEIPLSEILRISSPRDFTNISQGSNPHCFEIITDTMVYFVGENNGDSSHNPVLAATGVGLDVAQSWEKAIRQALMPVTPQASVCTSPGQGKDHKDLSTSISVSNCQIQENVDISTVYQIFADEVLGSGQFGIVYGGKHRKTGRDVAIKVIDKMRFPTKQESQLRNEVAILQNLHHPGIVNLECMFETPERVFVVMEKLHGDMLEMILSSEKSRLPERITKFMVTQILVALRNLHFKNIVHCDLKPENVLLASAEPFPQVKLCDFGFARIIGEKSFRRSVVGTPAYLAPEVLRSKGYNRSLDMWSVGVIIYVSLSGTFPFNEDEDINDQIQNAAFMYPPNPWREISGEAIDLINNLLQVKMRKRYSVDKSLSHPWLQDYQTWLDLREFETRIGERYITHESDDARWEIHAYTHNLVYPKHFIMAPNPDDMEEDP
EXPERIMENTAL PROTOCOL: KINOMEscan competition binding
EXPERIMENTAL CONDITIONS: compound 10.0 µM
PARAMETER: kinase still bound, per cent of control

Use these answered entries as a reference point.
{"MOLECULE": "O=C(O)c1ccc(Nc2ncc3c(n2)-c2ccc(Cl)cc2C(c2c(F)cccc2F)=NC3)cc1", "kinase still bound, per cent of control": "96%"}
{"MOLECULE": "O=C1Nc2ccc(I)cc2/C1=C/c1cc(Br)c(O)c(Br)c1", "kinase still bound, per cent of control": "100%"}
{"MOLECULE": "COc1cc(C(=O)NC2CCN(C)CC2)ccc1Nc1ncc2c(n1)N(C1CCCC1)C(C)CC(=O)N2C (stereo not given)", "kinase still bound, per cent of control": "32%"}
{"MOLECULE": "C=CC(=O)Nc1cccc(Nc2nc(N[C@H]3CC[C@H](N(C)C)CC3)nc3c2ncn3C(C)C)c1", "kinase still bound, per cent of control": "80%"}

# next molecule below
Exam item: Any idea what its kinase still bound, per cent of control is? The molecule is O=C(NC1CC1)c1cccc(-c2ccc3c(NC(=O)C4CC4)n[nH]c3c2)c1
Marked response: 100%

====

TARGET SYSTEM: TAOK1 (human) (UniProt Q7L7X3)
Sequence (Q7L7X3 whole entry, looked up): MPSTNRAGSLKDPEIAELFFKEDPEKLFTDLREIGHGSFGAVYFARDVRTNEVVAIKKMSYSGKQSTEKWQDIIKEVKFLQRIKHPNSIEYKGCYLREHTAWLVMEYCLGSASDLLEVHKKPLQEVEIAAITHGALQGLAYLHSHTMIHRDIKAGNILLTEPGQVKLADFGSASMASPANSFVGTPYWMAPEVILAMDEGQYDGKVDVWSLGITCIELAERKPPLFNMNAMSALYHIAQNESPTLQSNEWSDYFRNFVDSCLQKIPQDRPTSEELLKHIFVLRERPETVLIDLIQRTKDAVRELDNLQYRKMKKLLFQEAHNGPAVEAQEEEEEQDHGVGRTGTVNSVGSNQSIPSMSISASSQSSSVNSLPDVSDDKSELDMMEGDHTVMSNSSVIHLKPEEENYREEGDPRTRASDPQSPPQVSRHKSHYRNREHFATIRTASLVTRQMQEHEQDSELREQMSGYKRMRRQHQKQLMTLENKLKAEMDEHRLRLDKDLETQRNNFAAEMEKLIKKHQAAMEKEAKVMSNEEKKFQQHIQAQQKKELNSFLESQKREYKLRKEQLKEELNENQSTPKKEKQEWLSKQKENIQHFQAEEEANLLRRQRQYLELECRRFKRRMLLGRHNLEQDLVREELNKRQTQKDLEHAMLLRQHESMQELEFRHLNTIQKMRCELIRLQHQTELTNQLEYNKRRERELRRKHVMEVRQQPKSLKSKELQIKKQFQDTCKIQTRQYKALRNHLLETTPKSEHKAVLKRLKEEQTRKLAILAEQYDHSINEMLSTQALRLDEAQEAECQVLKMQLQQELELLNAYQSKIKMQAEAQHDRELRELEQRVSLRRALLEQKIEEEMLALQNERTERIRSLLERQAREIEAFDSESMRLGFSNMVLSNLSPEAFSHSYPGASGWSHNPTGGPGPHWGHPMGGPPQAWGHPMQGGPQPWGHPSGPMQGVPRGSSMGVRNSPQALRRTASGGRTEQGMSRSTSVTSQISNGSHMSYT
EXPERIMENTAL PROTOCOL: KINOMEscan competition binding
EXPERIMENTAL CONDITIONS: compound 10.0 µM
PARAMETER: kinase still bound, per cent of control (%)
Numbers only; they are read as %.

Use these answered entries as a reference point.
{"COMPOUND": "CCC(=O)N1CCN(c2ccc(-n3c(=O)ccc4cnc5ccc(-c6cnc7ccccc7c6)cc5c43)cc2C(F)(F)F)CC1", "TARGET SYSTEM": "TAOK1 (human) (UniProt Q7L7X3)", "OBSERVED": 58}
{"COMPOUND": "CCN1CCN(Cc2ccc(Nc3ncc4c(n3)N(C)c3ccccc3C(=O)N4C)cc2C(F)(F)F)CC1", "TARGET SYSTEM": "TAOK1 (human) (UniProt Q7L7X3)", "OBSERVED": 0.2}
{"COMPOUND": "COc1cc(C(=O)NC2CCN(C)CC2)ccc1Nc1ncc2c(n1)N(C1CCCC1)C(C)CC(=O)N2C (stereo not drawn)", "TARGET SYSTEM": "TAOK1 (human) (UniProt Q7L7X3)", "OBSERVED": 100}
{"COMPOUND": "C=CC(=O)Nc1cc(NC(=O)c2ccc(C)c(NC(=O)c3ccno3)c2)cc(C(F)(F)F)c1", "TARGET SYSTEM": "TAOK1 (human) (UniProt Q7L7X3)", "OBSERVED": 76}
{"COMPOUND": "O=C(NC1CC1)c1cccc(-c2ccc3c(NC(=O)C4CC4)n[nH]c3c2)c1", "TARGET SYSTEM": "TAOK1 (human) (UniProt Q7L7X3)", "OBSERVED": 4.5}
{"COMPOUND": "CCOc1cc2ncc(C#N)c(Nc3ccc(OCc4ccccn4)c(Cl)c3)c2cc1NC(=O)/C=C/CN(C)C", "TARGET SYSTEM": "TAOK1 (human) (UniProt Q7L7X3)", "OBSERVED": 83}
{"COMPOUND": "COc1cc(C(=O)NC2CCN(C)CC2)ccc1Nc1ncc2c(n1)N(C1CCCC1)CCC(=O)N2C(C)C", "TARGET SYSTEM": "TAOK1 (human) (UniProt Q7L7X3)", "OBSERVED": 100}

# next compound below
Exam item: Any idea what its kinase still bound, per cent of control is? The compound is C[C@@H](Oc1cc(-n2cnc3ccc(CN4CCN(C)CC4)cc32)sc1C(N)=O)c1ccccc1C(F)(F)F
Marked response: 14

====

Listed below: kinase still bound, per cent of control values for each entry.
TARGET SYSTEM: MST1R (human) (UniProt Q04912)
Sequence (Q04912 whole entry, looked up): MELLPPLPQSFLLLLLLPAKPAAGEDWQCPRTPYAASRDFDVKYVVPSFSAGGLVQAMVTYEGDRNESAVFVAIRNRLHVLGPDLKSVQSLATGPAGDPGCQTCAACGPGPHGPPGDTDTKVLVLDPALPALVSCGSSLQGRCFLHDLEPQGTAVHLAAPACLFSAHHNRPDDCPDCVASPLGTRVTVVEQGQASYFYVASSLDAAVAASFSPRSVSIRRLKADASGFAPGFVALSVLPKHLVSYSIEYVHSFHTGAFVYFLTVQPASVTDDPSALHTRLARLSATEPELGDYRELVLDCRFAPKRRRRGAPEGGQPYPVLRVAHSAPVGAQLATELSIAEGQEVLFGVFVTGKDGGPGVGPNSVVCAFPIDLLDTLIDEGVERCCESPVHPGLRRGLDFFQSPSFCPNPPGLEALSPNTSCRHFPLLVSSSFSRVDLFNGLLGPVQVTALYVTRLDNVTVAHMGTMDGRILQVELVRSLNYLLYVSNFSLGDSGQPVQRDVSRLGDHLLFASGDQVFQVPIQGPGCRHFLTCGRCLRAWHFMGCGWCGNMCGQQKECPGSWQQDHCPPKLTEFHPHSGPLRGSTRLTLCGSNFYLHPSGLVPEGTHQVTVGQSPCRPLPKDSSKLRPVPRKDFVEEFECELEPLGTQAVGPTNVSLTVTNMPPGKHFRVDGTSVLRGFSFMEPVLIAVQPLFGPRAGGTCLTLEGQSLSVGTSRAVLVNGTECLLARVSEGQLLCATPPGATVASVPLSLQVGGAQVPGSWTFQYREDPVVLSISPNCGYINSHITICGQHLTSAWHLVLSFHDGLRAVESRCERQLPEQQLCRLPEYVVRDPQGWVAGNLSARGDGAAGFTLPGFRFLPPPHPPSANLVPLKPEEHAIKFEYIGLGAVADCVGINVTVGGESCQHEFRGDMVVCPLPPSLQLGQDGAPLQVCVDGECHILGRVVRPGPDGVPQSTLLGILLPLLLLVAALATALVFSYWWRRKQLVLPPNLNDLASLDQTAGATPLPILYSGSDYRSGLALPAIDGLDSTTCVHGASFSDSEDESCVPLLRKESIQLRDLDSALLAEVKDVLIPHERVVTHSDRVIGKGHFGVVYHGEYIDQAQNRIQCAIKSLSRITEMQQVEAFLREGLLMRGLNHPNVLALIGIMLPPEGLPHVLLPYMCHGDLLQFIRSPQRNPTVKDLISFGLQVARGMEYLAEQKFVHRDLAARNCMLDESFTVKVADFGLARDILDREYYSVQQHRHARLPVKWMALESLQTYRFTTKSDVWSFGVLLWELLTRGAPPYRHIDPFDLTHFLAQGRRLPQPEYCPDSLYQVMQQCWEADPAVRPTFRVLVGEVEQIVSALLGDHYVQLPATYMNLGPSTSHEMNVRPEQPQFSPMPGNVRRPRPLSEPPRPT
EXPERIMENTAL PROTOCOL: KINOMEscan competition binding
EXPERIMENTAL CONDITIONS: compound 10.0 µM
Numbers only; they are read as %.

Use these answered entries as a reference point.
{"SMILES REPR": "CCOc1cc2ncc(C#N)c(Nc3ccc(OCc4ccccn4)c(Cl)c3)c2cc1NC(=O)/C=C/CN(C)C", "kinase still bound, per cent of control, %": 100}
{"SMILES REPR": "C=CC(=O)Nc1cc(NC(=O)c2ccc(C)c(NC(=O)c3ccno3)c2)cc(C(F)(F)F)c1", "kinase still bound, per cent of control, %": 99}
{"SMILES REPR": "CCC(=O)N1CCN(c2ccc(-n3c(=O)ccc4cnc5ccc(-c6cnc7ccccc7c6)cc5c43)cc2C(F)(F)F)CC1", "kinase still bound, per cent of control, %": 55}
{"SMILES REPR": "Cc1ccc2nc(NCCN)c3ncc(C)n3c2c1", "kinase still bound, per cent of control, %": 100}

# next molecule below
Exam item: Any idea what its kinase still bound, per cent of control is? The molecule is Cc1ccc(C(=O)Nc2cccc(C(F)(F)F)c2)cc1Nc1cncc(C(N)=O)c1
Marked response: 100

====

TARGET SYSTEM: FYN (human) (UniProt P06241)
Sequence (P06241 whole entry, looked up): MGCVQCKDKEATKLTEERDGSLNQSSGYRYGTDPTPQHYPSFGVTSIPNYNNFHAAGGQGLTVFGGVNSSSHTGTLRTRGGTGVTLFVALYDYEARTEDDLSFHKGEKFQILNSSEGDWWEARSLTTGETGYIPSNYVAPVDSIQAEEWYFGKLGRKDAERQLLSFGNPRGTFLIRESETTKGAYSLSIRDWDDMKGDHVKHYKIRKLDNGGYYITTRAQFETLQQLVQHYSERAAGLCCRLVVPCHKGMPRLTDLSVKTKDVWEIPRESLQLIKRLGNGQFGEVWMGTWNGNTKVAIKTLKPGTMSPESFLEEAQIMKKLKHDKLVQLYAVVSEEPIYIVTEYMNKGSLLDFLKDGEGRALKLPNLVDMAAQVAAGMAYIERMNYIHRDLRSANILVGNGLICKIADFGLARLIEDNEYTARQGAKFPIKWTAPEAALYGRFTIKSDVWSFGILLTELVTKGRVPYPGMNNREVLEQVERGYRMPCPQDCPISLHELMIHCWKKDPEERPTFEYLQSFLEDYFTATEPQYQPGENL
EXPERIMENTAL PROTOCOL: KINOMEscan competition binding
EXPERIMENTAL CONDITIONS: compound 10.0 µM
PARAMETER: kinase still bound, per cent of control (%)
Numbers only; they are read as %.

{"MOLECULE": "C=CC(=O)Nc1cccc(Oc2nc(Nc3ccc(N4CCN(C)CC4)cc3OC)ncc2Cl)c1", "MEASUREMENT UNITS": "%", "kinase still bound, per cent of control": 100}
{"MOLECULE": "O=C1Nc2ccc(I)cc2/C1=C/c1cc(Br)c(O)c(Br)c1", "MEASUREMENT UNITS": "%", "kinase still bound, per cent of control": 52}
{"MOLECULE": "CCOc1cc2ncc(C#N)c(Nc3ccc(OCc4ccccn4)c(Cl)c3)c2cc1NC(=O)/C=C/CN(C)C", "MEASUREMENT UNITS": "%", "kinase still bound, per cent of control": 84}
{"MOLECULE": "COc1cc(C(=O)NC2CCN(C)CC2)ccc1Nc1ncc2c(n1)N(C1CCCC1)C(C)CC(=O)N2C (centres undefined)", "MEASUREMENT UNITS": "%", "kinase still bound, per cent of control": 100}
{"MOLECULE": "CCN1CCN(Cc2ccc(Nc3ncc4c(n3)N(C)c3ccccc3C(=O)N4C)cc2C(F)(F)F)CC1", "MEASUREMENT UNITS": "%", "kinase still bound, per cent of control": 20}
{"MOLECULE": "O=C(NC1CC1)c1cccc(-c2ccc3c(NC(=O)C4CC4)n[nH]c3c2)c1", "MEASUREMENT UNITS": "%", "kinase still bound, per cent of control": 79}
{"MOLECULE": "C=CC(=O)Nc1cccc(Nc2nc(N[C@H]3CC[C@H](N(C)C)CC3)nc3c2ncn3C(C)C)c1", "MEASUREMENT UNITS": "%", "kinase still bound, per cent of control": 23}
{"MOLECULE": "O=C(O)c1ccc(Nc2ncc3c(n2)-c2ccc(Cl)cc2C(c2c(F)cccc2F)=NC3)cc1", "MEASUREMENT UNITS": "%", "kinase still bound, per cent of control": 17}
{"MOLECULE": "Cc1ccc2nc(NCCN)c3ncc(C)n3c2c1", "MEASUREMENT UNITS": "%", "kinase still bound, per cent of control": 100}
{"MOLECULE": "CCCS(=O)(=O)Nc1ccc(F)c(C(=O)c2c[nH]c3ncc(-c4ccc(Cl)cc4)cc23)c1F", "MEASUREMENT UNITS": "%", "kinase still bound, per cent of control": 9.1}

Exam item: Any idea what its kinase still bound, per cent of control is? The molecule is N#Cc1c(NC(=O)c2cccc3ccccc23)sc2c1CCCC2
Marked response: 63

Exam item: Any idea what its kinase still bound, per cent of control is? The molecule is Nc1ccc(-c2ccc3ncc4ccc(=O)n(-c5cccc(C(F)(F)F)c5)c4c3c2)cn1
Marked response: 92

Exam item: Any idea what its kinase still bound, per cent of control is? The molecule is CC[C@@H]1C(=O)N(C)c2cnc(Nc3ccc(C(=O)NC4CCN(C)CC4)cc3OC)nc2N1C1CCCC1
Marked response: 100

Exam item: Any idea what its kinase still bound, per cent of control is? The molecule is Cc1ccc(NC(=O)c2cccc(C(C)(C)C#N)c2)cc1Nc1ccc2ncn(C)c(=O)c2c1
Marked response: 3.6

Exam item: Any idea what its kinase still bound, per cent of control is? The molecule is C=CC(=O)Nc1cc(NC(=O)c2ccc(C)c(NC(=O)c3ccno3)c2)cc(C(F)(F)F)c1
Marked response: 73

====

TARGET SYSTEM: WEE1 (human)
EXPERIMENTAL PROTOCOL: KINOMEscan competition binding
EXPERIMENTAL CONDITIONS: compound 10.0 µM
PARAMETER: kinase still bound, per cent of control (%)
Numbers only; they are read as %.

Use these answered entries as a reference point.
{"SMILES REPR": "N#Cc1c(NC(=O)c2cccc3ccccc23)sc2c1CCCC2", "kinase still bound, per cent of control [%]": 64}
{"SMILES REPR": "C[C@@H](Oc1cc(-n2cnc3ccc(CN4CCN(C)CC4)cc32)sc1C(N)=O)c1ccccc1C(F)(F)F", "kinase still bound, per cent of control [%]": 100}
{"SMILES REPR": "CN(C)C/C=C/C(=O)Nc1cccc(Nc2ncc3c(n2)N(C)c2ccccc2C(=O)N3C)c1", "kinase still bound, per cent of control [%]": 100}
{"SMILES REPR": "O=C1Nc2ccc(I)cc2/C1=C/c1cc(Br)c(O)c(Br)c1", "kinase still bound, per cent of control [%]": 100}
{"SMILES REPR": "Cc1cc([C@@H](C)Nc2ccccc2C(=O)O)c2nc(N3CCOCC3)cc(=O)n2c1", "kinase still bound, per cent of control [%]": 100}

Exam item: Given the entry CCC(=O)N1CCN(c2ccc(-n3c(=O)ccc4cnc5ccc(-c6cnc7ccccc7c6)cc5c43)cc2C(F)(F)F)CC1 , what kinase still bound, per cent of control was observed with WEE1 (human)?
Marked response: 42

Exam item: Given the entry CCN1CCN(Cc2ccc(Nc3ncc4c(n3)N(C)c3ccccc3C(=O)N4C)cc2C(F)(F)F)CC1 , what kinase still bound, per cent of control was observed with WEE1 (human)?
Marked response: 91

Exam item: Given the entry Cc1ccc2nc(NCCN)c3ncc(C)n3c2c1 , what kinase still bound, per cent of control was observed with WEE1 (human)?
Marked response: 100

Exam item: Given the entry O=C(O)c1ccc(Nc2ncc3c(n2)-c2ccc(Cl)cc2C(c2c(F)cccc2F)=NC3)cc1 , what kinase still bound, per cent of control was observed with WEE1 (human)?
Marked response: 100
